Provide the reported protein stability index of each item.
B1: SMG5 (parent)
chain: TNPDLIIVCAQSSQSLWNRLSVLL

variants of: B1; experiment: protein stability index of a GFP-peptide fusion (GPS, HEK-293T) (PSI 1-6); higher = more stable; settings: c terminus: a fixed tail appended;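 note: lentivirally expressed fusions sorted by FACS into six bins by GFP to DsRed ratio, PSI derived from sequencing read proportions per bin multiplied by bin number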
Answers are plain numbers.

Reference set (4 entries):
S13Q : 1.83
D4G : 1.65
R19K : 2.5
V8I : 2.93

Answer for every listed entry: what is its protein stability index? The entries follow.
1. V8K
2. T1R
3. S12E
4. V22N
5. L20Y
6. W17Y

Given back:
1. 1.47
2. 1.37
3. 2.22
4. 1.58
5. 2.11
6. 2.88

protein stability index measured on `L16N` = 2.81
